Experiment: Unbound volume of distribution in rat
Assay type: ADME
Details: in vivo
Rule: Vdu under 30 L/kg gives false, otherwise true.

Could you tell me if the measured Vdu of "Cc1ncnc2c1ccn2[C@@H]1O[C@@H]2[C@@H](Oc3ccc4cc(Cl)c(N)nc4c3)CC[C@]2(O)[C@H]1O" reaches 30 L/kg or more? true

Can "Nc1nc2cc(C[C@@H]3CC[C@@]4(O)[C@@H]3O[C@@H](n3ccc5c(N)ncnc53)[C@@H]4O)ccc2cc1F" be said to have Vdu at or above 30 L/kg? true

Quick check, Vdu >= 30 L/kg? "Cc1cc2ccc(C[C@@H]3CC[C@@]4(O)[C@@H]3O[C@@H](n3ccc5c(N)ncnc53)[C@@H]4O)cc2nc1N" false

Can "Nc1nc2cc(C[C@@H]3CC[C@@]4(O)[C@@H]3C[C@@H](n3cc(F)c5c(N)ncnc53)[C@@H]4O)ccc2cc1F" be said to have Vdu at or above 30 L/kg? false

// inclusive: Vdu at least 30 L/kg? input: "Nc1nc2cc(C[C@@H]3CC[C@@]4(O)[C@@H]3O[C@@H](n3ccc5c(N)ncnc53)[C@@H]4O)c(F)cc2cc1F" true

***
Does "Nc1nc2cc(C[C@@H]3CC[C@@]4(O)[C@@H]3O[C@@H](n3ccc5c(N)ncnc53)[C@@H]4O)ccc2cc1Cl" have a reported Vdu of at least 30 L/kg? true

====

System: Z-138
Experiment: Antiproliferative activity against human Z138 cells incubated for 10 days by cell titer-glo assay
Assay type: functional, cell-based
Details: Z-138, 240 h
A collection of compounds and their measured pEC50
The read-out pEC50 is expressed as -log10 of concentration in moles per litre.

Reported pEC50, compound "Cc1ncnc2c1ccn2[C@@H]1C[C@@H]2[C@H](Cc3ccc4cc(F)c(N)nc4c3)CC[C@]2(O)[C@H]1O" : ____ 8.46

So what's the measured pEC50 for this one? "Nc1nc2cc(C[C@@H]3CC[C@@]4(O)[C@@H]3O[C@@H](n3ccc5c(N)ncnc53)[C@@H]4O)ccc2cc1Br" 8.77

If you can, please state the reported pEC50 value of "Nc1nc2cc(C[C@@H]3CC[C@@]4(O)[C@@H]3O[C@@H](n3ccc5c(N)ncnc53)[C@@H]4O)ccc2cc1F" . 8.08

What does the record list as pEC50 for "Cc1ncnc2c1ccn2[C@@H]1O[C@@H]2[C@@H](Cc3ccc4cc(Cl)c(N)nc4c3)CC[C@]2(O)[C@H]1O" ? 7.59

---
If you can, please state the reported pEC50 value of "Cc1ncnc2c1ccn2[C@@H]1O[C@@H]2[C@H](Cc3ccc4cc(Cl)c(N)nc4c3)CC[C@]2(O)[C@H]1O" . 8.16

Need pEC50, item "Nc1nc2cc(O[C@H]3CC[C@@]4(O)[C@@H]3O[C@@H](n3ccc5c(N)ncnc53)[C@@H]4O)ccc2cc1Br" 8.43

Any idea what its pEC50 is? The compound is "Cc1ncnc2c1ccn2[C@@H]1O[C@@H]2[C@@H](Oc3ccc4cc(Br)c(N)nc4c3)CC[C@]2(O)[C@H]1O" 7.77

====

Assay: Solubility of the compound in FaSSIF at pH 7 at 200 uM incubated for 24 hrs by UV-vis detection based HPLC analysis
Assay type: physicochemical
assay.metric: solubility at 24 h, 200 µM

# get_value(readout='solubility at 24 h, 200 µM', item= "Cc1ncnc2c1ccn2[C@@H]1O[C@@H]2[C@@H](Oc3ccc4cc(Br)c(N)nc4c3)CC[C@]2(O)[C@H]1O" ) < 1 µM

Bench note: what solubility at 24 h, 200 µM did "Cc1ncnc2c1ccn2[C@@H]1O[C@@H]2[C@H](Cc3ccc4cc(Br)c(N)nc4c3)CC[C@]2(O)[C@H]1O" show? 21 µM

Continuing:
Need solubility at 24 h, 200 µM, item "Nc1nc2cc(C[C@@H]3CC[C@@]4(O)[C@@H]3C[C@@H](n3cc(F)c5c(N)ncnc53)[C@@H]4O)ccc2cc1F" 121 µM

Bench note: what solubility at 24 h, 200 µM did "Cc1nc(N)c2ccn([C@@H]3O[C@@H]4[C@H](Cc5ccc6cc(Br)c(N)nc6c5)CC[C@]4(O)[C@H]3O)c2n1" show? 21 µM

====

Assay: Oral bioavailability in rat
Type: ADME, organism-based
Details: in vivo
assay.metric: bioavailability (%)
Only the number, expressed in %, is required.

Which bioavailability reading was recorded for the compound "Nc1nc2cc(O[C@H]3CC[C@@]4(O)[C@@H]3O[C@@H](n3ccc5c(N)ncnc53)[C@@H]4O)ccc2cc1Br" ? 10

Look at this compound and give its reported bioavailability. "Cc1ncnc2c1ccn2[C@@H]1O[C@@H]2[C@H](Cc3ccc4cc(F)c(N)nc4c3)CC[C@]2(O)[C@H]1O" 51

Others:
Field request: bioavailability | item: "Nc1nc2cc(C[C@@H]3CC[C@@]4(O)[C@@H]3O[C@@H](n3ccc5c(N)ncnc53)[C@@H]4O)c(F)cc2cc1F" 30

Fill in the blank: the reported bioavailability of "Cc1nc(N)c2ccn([C@@H]3O[C@@H]4[C@H](Cc5ccc6cc(Br)c(N)nc6c5)CC[C@]4(O)[C@H]3O)c2n1" is ____. 11

Which bioavailability value is on record for "Cc1nc(N)c2ccn([C@@H]3C[C@@H]4[C@H](Cc5ccc6cc(F)c(N)nc6c5)CC[C@]4(O)[C@H]3O)c2n1" ? 17

Could you share which bioavailability value was measured for "Cc1ncnc2c1ccn2[C@@H]1O[C@@H]2[C@H](Cc3ccc4cc(Cl)c(N)nc4c3)CC[C@]2(O)[C@H]1O" ? 41

Which bioavailability value belongs to "Cc1ncnc2c1ccn2[C@@H]1C[C@@H]2[C@H](Cc3ccc4cc(F)c(N)nc4c3)CC[C@]2(O)[C@H]1O" ? 77

====

Experiment: Plasma clearance in rat
Format: ADME
assay.metric: clearance (mL/min/kg)
Express the result in mL/min/kg but write the number alone.

Name the reported clearance value associated with the molecule "CNc1ncnc2c1ccn2[C@@H]1O[C@@H]2[C@@H](Oc3ccc4cc(Br)c(N)nc4c3)CC[C@]2(O)[C@H]1O" 12

Tell me the measured clearance of "Cc1ncnc2c1ccn2[C@@H]1O[C@@H]2[C@@H](Oc3ccc4cc(Cl)c(N)nc4c3)CC[C@]2(O)[C@H]1O" , please. 8

Entry "Nc1nc2cc(C[C@@H]3CC[C@@]4(O)[C@@H]3C[C@@H](n3cc(F)c5c(N)ncnc53)[C@@H]4O)cc(F)c2cc1F" : reported clearance = ? 14

New cases:
Endpoint output: clearance of "CNc1ncnc2c1ccn2[C@@H]1O[C@@H]2[C@H](Cc3ccc4cc(Br)c(N)nc4c3)CC[C@]2(O)[C@H]1O" . Value? 31

Consider the molecule shown here: "Nc1nc2cc(C[C@@H]3CC[C@@]4(O)[C@@H]3O[C@@H](n3ccc5c(N)ncnc53)[C@@H]4O)ccc2cc1Cl" What is its recorded clearance? 46

Can you share its clearance? I mean this molecule: "Nc1nc2cc(O[C@H]3CC[C@@]4(O)[C@@H]3O[C@@H](n3ccc5c(N)ncnc53)[C@@H]4O)ccc2cc1F" 49

Find the recorded clearance belonging to "Cc1ncnc2c1ccn2[C@@H]1O[C@@H]2[C@H](Cc3ccc4ccc(N)nc4c3)CC[C@]2(O)[C@H]1O" and report it. 101

====

System: Z-138
Test: Antiproliferative activity against human Z138 cells incubated for 10 days by cell titer-glo assay
Type: functional, cell-based
Details: Z-138, 240 h
assay.metric: EC50 (nM)
Provide the reading as a plain figure in nM.

Worked examples, 8 molecules total:
Reported EC50 for "CNc1ncnc2c1ccn2[C@@H]1O[C@@H]2[C@@H](Oc3ccc4cc(Br)c(N)nc4c3)CC[C@]2(O)[C@H]1O" : what is it? 23

Quick one: EC50 for "Cc1nc(N)c2ccn([C@@H]3O[C@@H]4[C@H](Cc5ccc6cc(Br)c(N)nc6c5)CC[C@]4(O)[C@H]3O)c2n1" ? 6.4

Suppose we examine the molecule "Cc1nc(N)c2ccn([C@@H]3C[C@@H]4[C@H](Cc5ccc6cc(F)c(N)nc6c5)CC[C@]4(O)[C@H]3O)c2n1" ; what EC50 value has been reported? 4.1

Query (molecule): "Nc1nc2cc(C[C@@H]3CC[C@@]4(O)[C@@H]3O[C@@H](n3ccc5c(N)ncnc53)[C@@H]4O)c(F)cc2cc1F" ; field requested: EC50 20

Reported EC50 for "Cc1ncnc2c1ccn2[C@@H]1C[C@@H]2[C@@H](Cc3ccc4cc(F)c(N)nc4c3)CC[C@]2(O)[C@H]1O" : what is it? 63

Please look up its EC50: "Nc1nc2cc(C[C@@H]3CC[C@@]4(O)[C@@H]3O[C@@H](n3ccc5c(N)ncnc53)[C@@H]4O)cc(F)c2cc1F" 5.6

Fill in: EC50 of "Cc1ncnc2c1ccn2[C@@H]1O[C@@H]2[C@H](Cc3ccc4cc(Br)c(N)nc4c3)CC[C@]2(O)[C@H]1O" is ___ 1.4

Query (molecule): "Nc1nc2cc(C[C@@H]3CC[C@@]4(O)[C@@H]3O[C@@H](n3ccc5c(C6CC6)ncnc53)[C@@H]4O)ccc2cc1Br" ; field requested: EC50 67

---
Given the entry "Cc1cc2ccc(C[C@@H]3CC[C@@]4(O)[C@@H]3O[C@@H](n3ccc5c(N)ncnc53)[C@@H]4O)cc2nc1N" , report its measured EC50. 0.77

Name the recorded EC50 for "Cc1ncnc2c1ccn2[C@@H]1O[C@@H]2[C@@H](Oc3ccc4cc(Cl)c(N)nc4c3)CC[C@]2(O)[C@H]1O" . 24

# query: EC50 of entry "Nc1nc2cc(O[C@H]3CC[C@@]4(O)[C@@H]3O[C@@H](n3ccc5c(N)ncnc53)[C@@H]4O)ccc2cc1Cl" 7.5

Entry "Nc1nc2cc(O[C@H]3CC[C@@]4(O)[C@@H]3O[C@@H](n3ccc5c(N)ncnc53)[C@@H]4O)ccc2cc1F" has what EC50? 27

Name the recorded EC50 for "Cc1ncnc2c1ccn2[C@@H]1C[C@@H]2[C@H](Cc3ccc4cc(Cl)c(N)nc4c3)CC[C@]2(O)[C@H]1O" . 2.2

Requested field: EC50. Item: "Nc1nc2cc(C[C@@H]3CC[C@@]4(O)[C@@H]3C[C@@H](n3cc(F)c5c(N)ncnc53)[C@@H]4O)ccc2cc1F" 2.3
